test system: TK-10; test: NCI tumour cell line growth inhibition, 48 h
Active and inactive are the calls of the source. Cut-off read from the data, not from the text of the source: active = GI50 up to about 1.1 µM and inactive = higher.
// allowed return values: active, inactive

Please review the following examples before continuing.
molecule: COc1cc2cc(c1Cl)N(C)C(=O)C[C@H](OC(=O)[C@H](C)N(C)C(C)=O)[C@]1(C)O[C@H]1[C@H](C)[C@@H]1C[C@@](O)(NC(=O)O1)[C@H](OC)/C=C/C=C(/C)C2
system.under.test: TK-10
group: active
//
molecule: COC(=O)c1ccc2c(c1)C(NC(C)=O)CCc1cc(OC)c(OC)c(OC)c1-2 (centres undefined)
system.under.test: TK-10
group: inactive
//
molecule: C=C(C)C1CC[C@]2(C(=O)O)CCC3(C)[C@H](CCC4[C@@]5(C)CC[C@H](OC6OC(CO)C(O)C6OC6OC(C)C(O)C(O)C6O)[C@@](C)(CO)C5CC[C@]43C)C12 (some centres undefined)
system.under.test: TK-10
group: inactive
//
molecule: Cc1[nH]n(C(=N)N)c(=O)c1CCO
system.under.test: TK-10
group: inactive
//
molecule: c1ccc(CCN(Cc2nc3ccccc3[nH]2)Cc2nc3ccccc3[nH]2)cc1
system.under.test: TK-10
group: inactive

I'd appreciate the recorded outcome for CC(=O)OC1CC(n2cc(F)c(=O)[nH]c2=O)OC1CO (centres undefined) from this test. inactive

====

system: EKVX; assay: NCI tumour cell line growth inhibition, 48 h
Active and inactive are the calls of the source. Cut-off read from the data, not from the text of the source: active = GI50 up to about 1.1 µM and inactive = higher.
readout.kind: GI50

molecule: Nc1c(/N=N/c2ccc(-c3ccc(/N=N/c4c(O)ccc5cc(S(=O)(=O)O)cc(S(=O)(=O)O)c45)cc3)cc2)c(S(=O)(=O)O)cc2cc(S(=O)(=O)O)c(/N=N/c3ccccc3)c(O)c12
GI50: > 100 µM (inactive)

Fill blank: measured GI50 of the molecule CCCCCCCC/C=C\CCCCCCC/C=C1/C[C@](/C=C/C(=O)OC)(CO)OC1=O is ____. 9.73 µM (inactive)

Report GI50 for COC(=O)/C(C#N)=C1\NN=NN1CCCN1CCOCC1 please. > 100 µM (inactive)

Param item = C=C(C)C12CC(COC(=O)c3ccccc3)C34OC5(OC1C3C1OC1(CO)C(O)C1(O)C(OC(=O)c3ccccc3)C(C)C(C(C)CCCCCCC5O)C14)O2 (centres undefined) ; retrieve measured GI50. 58.6 µM (inactive)

====

test system: U-251; experiment: NCI tumour cell line growth inhibition, 48 h
The source made the active and inactive calls. No stated cut-off is given here; in the data, active = GI50 up to about 1.1 µM and inactive = higher.
Reply using exactly one outcome from active, inactive

Take a look at these entries with their results.
molecule: N/C(S)=N/N=C/c1ccc(O)cn1
group: inactive

molecule: BrCC[N+]12CCCN1CCC2
group: inactive

molecule: CCCCCCC1CC(=O)C1(Cl)Cl (stereo unspecified)
group: inactive

molecule: CCCCCC/C=C\CCCCCCCCCC1=CC(=O)C=C(OC)C1=O
group: active

Tell me the recorded outcome of this test for O=C(O)CSc1nnc(COc2ccc(Cl)cc2)n1-c1ccccc1 . inactive

Please indicate how the test categorized C=C(C)C(=O)O[C@H]1[C@H]2[C@H](OC(=O)[C@H]2C)[C@H](O)[C@@H](C)[C@@H]2C=CC(=O)[C@]21C . inactive

====

test system: ACHN; test: NCI tumour cell line growth inhibition, 48 h
The source made the active and inactive calls. No stated cut-off is given here; in the data, active = GI50 up to about 1.1 µM and inactive = higher.
readout.kind: GI50

Worked examples follow.
compound: Cc1cc(C)c(N[S+]([O-])c2cccc(Cl)c2)c(C)c1 (configuration not stated)
system.under.test: ACHN
readout.kind: GI50
test.value: > 100 µM (inactive)
//
compound: Cc1ccc(NC(=O)C(=O)C2C(=O)NC(=O)NC2=O)cc1C
system.under.test: ACHN
readout.kind: GI50
test.value: > 100 µM (inactive)
//
compound: COc1ccc(C(C)c2cc3c(cc2OC)OCO3)cc1 (configuration not stated)
system.under.test: ACHN
readout.kind: GI50
test.value: 3.01 µM (inactive)
//
compound: CC(C)=C1CCC(CN(C)C)C1=O (configuration not stated)
system.under.test: ACHN
readout.kind: GI50
test.value: 17.7 µM (inactive)
//
compound: O=C(CCC=C(S(=O)(=O)c1ccccc1)S(=O)(=O)c1ccccc1)c1ccccc1
system.under.test: ACHN
readout.kind: GI50
test.value: 5.93 µM (inactive)
//
compound: Cc1ccc(C2(c3ccc(F)cc3)OC(=O)c3ccccc32)c(O)c1 (configuration not stated)
system.under.test: ACHN
readout.kind: GI50
test.value: 14.8 µM (inactive)

Give the reported GI50 for NC(C(=O)O)C(O)c1c[nH]cn1 (configuration not stated) (system: ACHN). > 100 µM (inactive)

Field: GI50 (ACHN). Entry: CC1(O)Oc2ccc3ccccc3c2C=C1C(N)=O (configuration not stated) > 100 µM (inactive)

ACHN / GI50 / NC(Cc1nnn[nH]1)C(=O)O (configuration not stated) : value? > 100 µM (inactive)

====

test system: M14; assay: NCI tumour cell line growth inhibition, 48 h
Calls of active or inactive are those of the source. No stated cut-off is given here; in the data, active = GI50 up to about 1.1 µM and inactive = higher.
Assign a class; possible classes are Yes = active, No = inactive

The examples below pair each entry with its known result.
molecule: c1ccc(C(NCC2CCO2)(c2ccccc2)c2ccccc2)cc1 (stereo not given)
system.under.test: M14
group: No
//
molecule: C/C=C(/C)C(=O)O[C@H]1C(C)=C[C@]23C(=O)[C@@H](C=C(COC(C)=O)[C@@H](O)[C@]12O)[C@H]1[C@@H](C[C@H]3C)[C@@]1(C)OC(=O)/C(C)=C\C
system.under.test: M14
group: No
//
molecule: O=C1CSC(c2c[nH]c3ccccc23)N1c1cccc([N+](=O)[O-])c1 (stereo not given)
system.under.test: M14
group: No

Dear colleague, could you share the recorded outcome for COc1ccc(NC(S)=Nc2ccccc2)cc1 when you have a moment? No

Please let me know the test result on file for CCC(Cc1cnc2nc(N)nc(N)c2n1)c1ccc(C(=O)NC(CCC(=O)O)C(=O)O)cc1 (stereo not given) . Yes

Which outcome was assigned to CCOC(=O)c1ncn(CCc2ccc(Cl)cc2)c1C in this test? No

Lab log entry: NC(=O)c1cc(-c2ccc(-n3ccnc3)cc2)nnc1O — outcome as called in the assay? No

====

system: 786-0; experiment: NCI tumour cell line growth inhibition, 48 h
Active and inactive are the calls of the source. Rule as the data show it: active = GI50 up to about 1.1 µM and inactive = higher.
Readings of GI50 for the listed molecules

Recorded GI50, per entry:
molecule: O=C(O)CN1C(=O)OC(c2ccccc2)C1=O (stereo not given)
GI50: > 100 µM (inactive)
--
molecule: Cc1[nH]n(C(=N)N)c(=O)c1CCO
GI50: 1.67 µM (inactive)
--
molecule: CC(C)c1ccc(/C=C(\NC(=O)c2ccccc2)c2nc3ccccc3[nH]2)cc1
GI50: 39.3 µM (inactive)

For the molecule shown here, Cc1cc(C)c(N[S+]([O-])c2cccc(Cl)c2)c(C)c1 (stereo not given) , give the reported GI50. > 100 µM (inactive)

Could you share which GI50 value was measured for COC1CC(OS(=O)(=O)c2ccc(C)cc2)C(OC(=O)c2ccccc2)C(C)O1 (stereo not given) ? > 10 µM (inactive)

// query GI50 value for entry OCC1NC(COC2OC(CO)C(O)C(O)C2O)C(O)C(O)C1O (stereo not given) > 100 µM (inactive)

What does the record list as GI50 for CC(=O)Nc1ccc(C(O)/C(=N/N)c2nc3ccc(Cl)cc3nc2O)cc1 (stereo not given) ? > 100 µM (inactive)

Tell me the measured GI50 of C=C(C)C12CC(COC(=O)c3ccccc3)C34OC5(OC1C3C1OC1(CO)C(O)C1(O)C(OC(=O)c3ccccc3)C(C)C(C(C)CCCCCCC5O)C14)O2 (stereo not given) , please. > 61.8 µM (inactive)

Param item = Cc1cc(S(=O)(=O)Nc2nc(N)n[nH]2)c(Cl)cc1Cl ; retrieve measured GI50. > 10 µM (inactive)

Given c1ccc(C2C3=C(Nc4ncnn42)c2ccccc2C3)cc1 (stereo not given) , state its recorded GI50. 25.4 µM (inactive)

====

system: KM12; experiment: NCI tumour cell line growth inhibition, 48 h
Activity calls are given as the source filed them. Cut-off read from the data, not from the text of the source: active = GI50 up to about 1.1 µM and inactive = higher.
The following compounds are listed with their measured GI50 values.

compound: Cc1ccc([N+](=O)[O-])cc1S(=O)(=O)Nc1ccc(C2=NN(c3ccc([N+](=O)[O-])cc3[N+](=O)[O-])C(c3cccs3)C2)cc1 (centres undefined)
readout.kind: GI50
test.value: 21 µM (inactive)

compound: COc1ccc(N(C(=O)OC(C)(C)C)[C@@H]2C(C)=C[C@H]([S@@+]([O-])c3ccc(C)cc3)[C@@H]3C(=O)N(C)C(=O)[C@@H]32)cc1
readout.kind: GI50
test.value: 11.6 µM (inactive)

compound: CC(=O)Nc1ccc(C(O)/C(=N/N)c2nc3ccc(Cl)cc3nc2O)cc1 (centres undefined)
readout.kind: GI50
test.value: > 100 µM (inactive)

compound: CN(C(=O)C1CC1)C1C2CN3CCC(O2)C13 (centres undefined)
readout.kind: GI50
test.value: > 100 µM (inactive)

compound: CC(=O)Nc1ccc(/C=c2\sc3nnc(-c4cccnc4)n3c2=O)cc1
readout.kind: GI50
test.value: 16.8 µM (inactive)

compound: Nc1ccc(C(=O)NN2C(=O)C(Cl)C2c2ccccc2O)cc1 (centres undefined)
readout.kind: GI50
test.value: 82.6 µM (inactive)

Looking for the measured GI50 of CCOC(=O)Nn1c(C)cc(C(=O)OC)c1C , can you help? > 100 µM (inactive)

// returns reported GI50 for input Oc1cc(O)c2c(c1)OC(c1ccc(O)c(O)c1)C(O)C2c1c(O)cc(O)c2c1OC(c1ccc(O)c(O)c1)C(O)C2 (centres undefined) 46.5 µM (inactive)

Name the recorded GI50 for Cn1c(-c2cccc(N)c2)[n+](C)c2ccccc21 . > 100 µM (inactive)
